Test: self-splicing fitness, log relative to wild type (ln ratio); higher = more splicing; Tetrahymena group I intron in knt gene, E. coli kanamycin selection, DiMSum; sequences stand for … in CUCUCU…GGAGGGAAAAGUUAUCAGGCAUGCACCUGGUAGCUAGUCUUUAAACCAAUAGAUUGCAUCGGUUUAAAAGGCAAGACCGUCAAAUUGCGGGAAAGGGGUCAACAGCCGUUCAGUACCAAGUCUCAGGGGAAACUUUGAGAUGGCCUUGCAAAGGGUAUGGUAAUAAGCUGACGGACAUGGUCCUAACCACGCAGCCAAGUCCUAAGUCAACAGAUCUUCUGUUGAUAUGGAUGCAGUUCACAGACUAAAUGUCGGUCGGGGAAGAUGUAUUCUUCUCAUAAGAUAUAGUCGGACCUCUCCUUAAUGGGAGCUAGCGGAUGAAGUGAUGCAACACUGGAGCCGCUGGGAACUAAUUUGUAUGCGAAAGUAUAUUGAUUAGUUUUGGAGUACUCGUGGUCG;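 also: selection with 25 µg/mL kanamycin versus none on LB agar overnight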
Conditions: 30 °C
Parameter self-splicing fitness (ln): see the listing below.
test-readout: self-splicing fitness (ln)

query-sequence: GGGCAGCAAUAUUACGGACA
result-number: -1.97
--
query-sequence: GUACAGCAAUAUUACGAUAA
result-number: -1.95
--
query-sequence: GUGCAGCAAUAUUACGUAUA
result-number: -1.42
--
query-sequence: GAGUAGCAAUAUUACGGUAU
result-number: -2.6
--
query-sequence: UACCAGCAAUAUUACGAUUU
result-number: -1.25
--
query-sequence: UCAAAGCAAUAUUACGGGGG
result-number: -2.55
--
query-sequence: AAAUAGCAAUAUUACGGUCU
result-number: 0.108
--
query-sequence: UUGCAGCAAUAUUACGACCA
result-number: -1.8
--
query-sequence: GCGCAGCAAUAUUACGCUUA
result-number: -0.793
--
query-sequence: GAGUAGCAAUAUUACGGCUU
result-number: -2.2
--
query-sequence: GAGAAGCAAUAUUACGCGUG
result-number: -0.423
--
query-sequence: AACAAGCAAUAUUACGAUUU
result-number: 0.129
--
query-sequence: UACAAGCAAUAUUACGGGCC
result-number: -3.08
--
query-sequence: CUAGAGCAAUAUUACGGUAA
result-number: -3.52
--
query-sequence: AUUAAGCAAUAUUACGCUAG
result-number: -1.96
--
query-sequence: CAAGAGCAAUAUUACGCAGG
result-number: -2.62
--
query-sequence: UUCAAGCAAUAUUACGAUUC
result-number: -2.57
--
query-sequence: UUAGAGCAAUAUUACGGGGG
result-number: -3.04
--
query-sequence: CUGGAGCAAUAUUACGACUA
result-number: -1.37
--
query-sequence: AUGCAGCAAUAUUACGGGCA
result-number: -0.699
--
query-sequence: AUAAAGCAAUAUUACGCAUA
result-number: -1.34
--
query-sequence: UGCCAGCAAUAUUACGCCAG
result-number: -3.29
--
query-sequence: AACCAGCAAUAUUACGCUAU
result-number: -2.11
--
query-sequence: CAAUAGCAAUAUUACGAUUA
result-number: -1.2
--
query-sequence: GUCAAGCAAUAUUACGGUAC
result-number: -3.07

---

Parameter self-splicing fitness (ln): see the listing below.
Experiment: self-splicing fitness, log relative to wild type (ln ratio); higher = more splicing; Tetrahymena group I intron in knt gene, E. coli kanamycin selection, DiMSum; sequences stand for … in CUCUCU…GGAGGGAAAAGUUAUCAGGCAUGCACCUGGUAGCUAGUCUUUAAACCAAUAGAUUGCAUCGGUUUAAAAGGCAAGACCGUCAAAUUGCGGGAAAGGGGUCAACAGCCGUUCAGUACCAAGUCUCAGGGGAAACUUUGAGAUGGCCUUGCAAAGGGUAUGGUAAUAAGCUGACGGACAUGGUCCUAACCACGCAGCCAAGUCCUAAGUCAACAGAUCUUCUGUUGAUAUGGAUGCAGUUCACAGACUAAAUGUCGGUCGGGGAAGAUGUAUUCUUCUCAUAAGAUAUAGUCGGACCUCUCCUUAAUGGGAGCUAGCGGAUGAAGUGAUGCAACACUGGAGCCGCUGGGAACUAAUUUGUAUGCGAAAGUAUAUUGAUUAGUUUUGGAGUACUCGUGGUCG
Settings: 30 °C
test-readout: self-splicing fitness (ln)

query-sequence: UUGUAGCAAUAUUACGAUCG
result-number: -1.06
--
query-sequence: GUGCAGCAAUAUUACGGCUU
result-number: -0.306
--
query-sequence: UGUUAGCAAUAUUACGAGGU
result-number: -3.93
--
query-sequence: UACAAGCAAUAUUACGAUCG
result-number: 0.00344
--
query-sequence: GGGCAGCAAUAUUACGGUAG
result-number: -3.2
--
query-sequence: AAUGAGCAAUAUUACGCUAC
result-number: -3.12
--
query-sequence: AUCGAGCAAUAUUACGAGAC
result-number: -1.99
--
query-sequence: ACGGAGCAAUAUUACGCGAC
result-number: -2.45
--
query-sequence: UAUCAGCAAUAUUACGUUAA
result-number: -0.97
--
query-sequence: ACACAGCAAUAUUACGAUUA
result-number: -1.66
--
query-sequence: GCACAGCAAUAUUACGGAGC
result-number: -2.16
--
query-sequence: CAAGAGCAAUAUUACGAUGC
result-number: -2.54
--
query-sequence: GAAAAGCAAUAUUACGGCAA
result-number: -0.142
--
query-sequence: ACCGAGCAAUAUUACGUACA
result-number: -2.64
--
query-sequence: AAAUAGCAAUAUUACGAAAC
result-number: -3.4
--
query-sequence: UAACAGCAAUAUUACGUCGU
result-number: -3.43
--
query-sequence: UGACAGCAAUAUUACGUAUA
result-number: -2.19
--
query-sequence: UGGAAGCAAUAUUACGACGU
result-number: -1.62
--
query-sequence: UUAAAGCAAUAUUACGUAGU
result-number: -3.87
--
query-sequence: CGCAAGCAAUAUUACGCAUG
result-number: -2.77
--
query-sequence: AAUCAGCAAUAUUACGGAAA
result-number: -1.19
--
query-sequence: CGUAAGCAAUAUUACGGUAG
result-number: -2.56
--
query-sequence: UAUGAGCAAUAUUACGUAAA
result-number: -3.46
--
query-sequence: GGGAAGCAAUAUUACGCUUA
result-number: -0.798
--
query-sequence: GUAGAGCAAUAUUACGCAGC
result-number: -0.915
--
query-sequence: CAGUAGCAAUAUUACGCACC
result-number: -2.03
--
query-sequence: GCGAAGCAAUAUUACGGCAC
result-number: 0.112
--
query-sequence: AUCCAGCAAUAUUACGCAGU
result-number: -2.72
--
query-sequence: CAGAAGCAAUAUUACGUGUC
result-number: -3.9
--
query-sequence: CAGCAGCAAUAUUACGCAGC
result-number: -4.33
--
query-sequence: GUCUAGCAAUAUUACGCGUG
result-number: -0.894
--
query-sequence: CGCUAGCAAUAUUACGUGCG
result-number: -3.74
--
query-sequence: UCGAAGCAAUAUUACGUGCG
result-number: -1.07
--
query-sequence: CUUAAGCAAUAUUACGUGCG
result-number: -1.34
--
query-sequence: UUCGAGCAAUAUUACGAUCU
result-number: -2.66
--
query-sequence: GACGAGCAAUAUUACGUGCU
result-number: -2.92
--
query-sequence: AGUCAGCAAUAUUACGUAUG
result-number: -3.48
--
query-sequence: AGGUAGCAAUAUUACGAGAC
result-number: -3.88
--
query-sequence: UACCAGCAAUAUUACGGGCA
result-number: -0.875
--
query-sequence: GGUUAGCAAUAUUACGAGCG
result-number: -0.684
--
query-sequence: ACCAAGCAAUAUUACGUGCU
result-number: -1.7
--
query-sequence: GGAUAGCAAUAUUACGCUCG
result-number: -0.451
--
query-sequence: GAAAAGCAAUAUUACGGACG
result-number: -1.05
--
query-sequence: UUACAGCAAUAUUACGAGGG
result-number: -3.1
--
query-sequence: AUGAAGCAAUAUUACGGGAA
result-number: -1.83
--
query-sequence: UGCUAGCAAUAUUACGGGAC
result-number: -2.52
--
query-sequence: UGUCAGCAAUAUUACGGGGU
result-number: -2.91
--
query-sequence: UUAAAGCAAUAUUACGUUGA
result-number: -0.721
--
query-sequence: UUUAAGCAAUAUUACGUCCU
result-number: -1.82
--
query-sequence: AGGUAGCAAUAUUACGCUGU
result-number: -3.79
--
query-sequence: CCACAGCAAUAUUACGACGA
result-number: -3.12
--
query-sequence: GCCCAGCAAUAUUACGGACG
result-number: -0.702
--
query-sequence: GAUGAGCAAUAUUACGGCAA
result-number: -0.812
--
query-sequence: UAAAAGCAAUAUUACGCUAA
result-number: -1.86
--
query-sequence: UGUAAGCAAUAUUACGAAAC
result-number: -4.22
--
query-sequence: CAUGAGCAAUAUUACGAGCC
result-number: -3.05
--
query-sequence: GUAAAGCAAUAUUACGUCAG
result-number: -3.53
--
query-sequence: UCAGAGCAAUAUUACGGGGC
result-number: -3.3
--
query-sequence: UGGUAGCAAUAUUACGCCAG
result-number: -1.16
